Origin of the recorded values: ChEMBL document CHEMBL1158147

assay: Effect on human skin fibroblast cells assessed as viable cell count at 10 ug/ml in petroleum ether after 1.78 Joules/cm UV irradiation for 20 mins by trypan blue exclusion method; assay type: ADME, cell-based; conditions: read-out: Activity
quantity_measured: viability at 20 min, 10 ug/ml (%)
Express it in %; write the number only.

input: Read the entry "CC#CC#CC#Cc1ccccc1" and write its reported viability at 20 min, 10 ug/ml.
output: 95

----------
assay: Effect on human skin fibroblast cells assessed as viable cell count at 10 ug/ml in petroleum ether after 10.67 Joules/cm UV irradiation for 120 mins by trypan blue exclusion method; type: ADME, cell-based; conditions: read-out: Activity
quantity_measured: viability at 2 h, 10 ug/ml (%)
Express it in %; write the number only.

input: Read the entry "CC#CC#CC#Cc1ccccc1" and write its reported viability at 2 h, 10 ug/ml.
output: 0
